tested on: MOLT-4 leukemia; test: NCI tumour cell line growth inhibition, 48 h; in the data active = GI50 below about 0.43 µM; inactive = the rest
Select the matching outcome among Yes (active), No (inactive)

{"columns": ["COMPOUND", "SYSTEM_NAME", "ASSIGNED_CLASS"],
 "data": [
  ["O=C(O)c1ccc(NCc2nc3cc(Cl)c(Cl)cc3[nH]2)cc1", "MOLT-4 leukemia", "No"],
  ["COc1cc(-c2nn(-c3cccc(NC(=O)Nc4cccc(C(F)(F)F)c4)c3)cc2-c2ccncc2)ccc1Cl", "MOLT-4 leukemia", "No"],
  ["COc1ccc(/C=C/C2C(C#N)=C(N)OC3=C2C(=O)CCC3)cc1 (stereo not drawn)", "MOLT-4 leukemia", "No"],
  ["Cn1c(-c2ccncc2)c(-c2ccc(F)cc2)c2ncccc21", "MOLT-4 leukemia", "No"],
  ["CCN(CC)CC(O)CNc1c2ccc(Cl)cc2nc2ccc(OC)cc12 (stereo not drawn)", "MOLT-4 leukemia", "Yes"],
  ["COc1cc(/C=C/C(=O)c2ccccc2)cc(OC)c1OC", "MOLT-4 leukemia", "No"],
  ["C=C1C(O)C2C(=C(CCC3CC3)C13CC3)C(=O)C(C)(C)C2O (stereo not drawn)", "MOLT-4 leukemia", "No"],
  ["O=C(CN(/C=C/C(=O)C(F)(F)F)c1ccc(Cl)cc1)c1ccc(F)cc1", "MOLT-4 leukemia", "No"],
  ["COc1cc(/C=C2\\C(=O)Nc3ccccc32)cc(OC)c1O", "MOLT-4 leukemia", "No"],
  ["O=C1/C=C/[C@@H](O)[C@@H]2C[C@@H](O)C[C@H]2/C=C/CCC[C@H](CCc2ccccc2)O1", "MOLT-4 leukemia", "Yes"]
]}

Query: Test call for this compound, please: Cc1ccc(C2=Nc3c(N)nc(N)nc3NC(c3cccc(Nc4ccnc5cc(C(F)(F)F)ccc45)c3)C2)cc1 (stereo not drawn)
Result: No

Query: For c1ccc2nc(N/N=C3\CCCCC3C3CCCCC3)ccc2c1 (stereo not drawn) , which call appears in the assay record?
Result: No

Query: Any idea what this test logged for COc1cc2c3c(n(CCCNC4=NCCS4)c(=O)c2cc1OC)-c1cc2c(cc1C3=O)OCO2 ?
Result: Yes
